# TESTED_ON: T1, mouse MSR1 on RAW264.7 cells (mouse, UniProt P30204 1-458)
# T1 construct: whole, on cells; also called MSR1 positive RAW264.7 cells
# T1 sequence (looked up): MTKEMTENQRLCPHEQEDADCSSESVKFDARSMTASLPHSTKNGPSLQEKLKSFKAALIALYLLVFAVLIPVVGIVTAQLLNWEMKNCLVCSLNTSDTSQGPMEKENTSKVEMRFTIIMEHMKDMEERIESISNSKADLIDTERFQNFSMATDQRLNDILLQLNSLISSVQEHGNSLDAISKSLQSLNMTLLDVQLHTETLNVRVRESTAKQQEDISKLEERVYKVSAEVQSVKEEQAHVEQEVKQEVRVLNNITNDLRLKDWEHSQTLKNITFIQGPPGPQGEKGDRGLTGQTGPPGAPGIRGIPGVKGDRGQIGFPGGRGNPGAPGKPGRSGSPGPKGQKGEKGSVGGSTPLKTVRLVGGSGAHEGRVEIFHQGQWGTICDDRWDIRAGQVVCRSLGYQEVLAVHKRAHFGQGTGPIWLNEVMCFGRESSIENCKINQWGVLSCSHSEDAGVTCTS
# PROTOCOL_SUMMARY: flow cytometry, RAW264.7 cells
Please assign Not fulfilled whenever MFI is at or above 4000 MFI, and Fulfilled whenever it is below.

Answered cases to consult:
| BINDER | GROUP_LABEL |
| --- | --- |
| H1H27747P-N297Q (antibody, human IgG1, V domains shown, human IgG1 Fc with N297Q) VH: QVQLVESGGAVVQPGRSLRLSCAASGFTFSYYGMHWVRQAPGKGLEWVAVISYDGSKKYYADSVKGRFTISRDNSKNTLYLQMNSLRAEDTAVYYCAKDLTVDFYYGMDVWGQGTTVTVSS VL: DIQMTQSPSSVSASVGDRVTITCRASQGISSWLAWYQQKPGKAPKLLIYATSSLQSGAPSRFSGSGSGTDFTLTISSLQPEDFATYFCQQANSFPYTFGQGTKLEIKR | Fulfilled |
| H1H27731P-N297Q (antibody, V domains shown, human IgG1 Fc with N297Q) VH: QLQLQESGPGLVKPSETLSLTCTVSGGSISRISYYWGWIRQPPGKGLEWIGSIYDSGSTYYNPSLKSRVTISIDTSKNQFSLKLSSVTAADTAVYYCVRYSSSSAFAFDYWGQGTLVTVSS VL: DIQMTQSPSSVSASVGDRVTITCRASQGISSWLAWYQQKPGKAPKLLIYAASSLQSGVPSRFSGSGSGTDFTLTISSLQPEDFATYYCQQANSFPFTFGPGTKVDIKR | Fulfilled |
| H1H27734P-N297Q (antibody, human IgG1, V domains shown, human IgG1 Fc with N297Q) VH: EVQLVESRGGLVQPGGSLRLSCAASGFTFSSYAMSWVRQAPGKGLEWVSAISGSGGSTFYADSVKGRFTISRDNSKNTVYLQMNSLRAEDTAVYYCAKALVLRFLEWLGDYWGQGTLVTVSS VL: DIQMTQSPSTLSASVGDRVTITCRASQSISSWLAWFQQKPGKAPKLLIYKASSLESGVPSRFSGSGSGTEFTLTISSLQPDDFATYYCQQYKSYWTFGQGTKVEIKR | Not fulfilled |

Is MFI of H1H21231N-N297Q (antibody, human IgG1, V domains shown, human IgG1 Fc with N297Q point mutation) VH: EVQLVESGGGLVQPGGSLRLSCAASGFTFSDHYMDWVRQAPGKGLEWVGRTRNKANSHTTEYTASVTGRFTISRDDSRNSLYLQMNSLKTEDTAVYYCVRAGIIGTLFDYWGQGTLVTVSS VL: DIQMTQFPSSLSASVGDRVTITCRASQSISSFLNWFQQKPGKAPKFLIYAASSLQSGVPSRFSGSGSGTDFTLTISSLQPEDFATYYCQQSYSSPPITFGQGTRLEIKR strictly below 4000 MFI?
Fulfilled

Is MFI of H1H27736P-N297Q (antibody, human IgG1, V domains shown, human IgG1 Fc with N297Q) VH: EVQLVESGGGLVQPGGSLRLSCAASGFTFSSYAMSWVRQAPGKGLEWVSSISGSGDSTFYTDSVKGRFTISRDISKNTLYLQMNSLRAEDTAVYYCAKDRLLWFGDLISPFHYWGQGTLVTVSS VL: EIVLTQSPGTLSLSPGERATLSCRASQSVSNIYLAWYQQKPAQAPRLLIYGASSRATGIPDRFSVSGSGTDFTLTISRLEPEDFAVYYCQQYGSSPRTFGQGTKVEIKR strictly below 4000 MFI?
Fulfilled

Is MFI of H1H21234N-N297Q (antibody, human IgG1, V domains shown, human IgG1 Fc with N297Q point mutation (EU numbering)) VH: QVQLQESGPGLVKPSETLSLTCTVTGGSISRNYWSWIRQPPGKGLEWIGYIYYSGSIDYNPSLKSRVTISVDTSKNQFSLKLSSMTAADTAVYYCARDRWNWKYGMDVWGQGTTVIVSS VL: EIVLTQSPGTLSLSPGERATLSCRASQTVRNNYLAWYHQKPGQAPRLLIYGASSRATGIPDRFSGSGSGTDFTLTISRLEPEDFTVYYCHQYGNSPWTFGQGTKMEIKR strictly below 4000 MFI?
Not fulfilled
